Molecular target: SARS-CoV-2 Spike on wild-type pseudotyped virus (PsV) (SARS-CoV-2, UniProt P0DTC2 14-1273)
Experiment: cell-based or functional assay
# IC50 SARS-CoV2 PsV (IgG) listing for each entry below

[
  {
    "BINDER": "mAb 64 (antibody, V domains shown, also called IgG 64; Antibody 64) VH: EVQLLESGGGLVQPGGSLRLSCAASGFPFSQHGMHWVRQAPGKGLEWVSAIDRSGSYIYYADSVKGRFTISRDNSKNTLYLQMNSLRAEDTAVYYCARDTYGGKVTYFDYWGQGTLVTVSS VL: DIQMTQSPSSLSASVGDRVTITCRASQGISSHLAWYQQKPGKAPKLLIYDASNLETGVPSRFSGSGSGTDFTLTISSLQPEDFATYYCQQTYSTPWTFGQGTKVEIKR",
    "REPORTED MEASUREMENT": "> 50 µg/mL"
  },
  {
    "BINDER": "mAb 254 (antibody, V domains shown, also called IgG 254; Antibody 254) VH: EVQLLESGGGLVQPGGSLRLSCAASGFTFSSSAMHWVRQAPGKGLEWVSAIGTGGDTYYADSVKGRFTISRDNSKNTLYLQMNSLRAEDTAVYYCAREGDGYNFYFDYWGQGTLVTVSS VL: DIQMTQSPSSLSASVGDRVTITCRASQGISSYLAWYQQKPGKAPKLLIYDASSLQIGVPSRFSGSGSGTDFTLTISSLQPEDFATYYCLQSYSTPPWTFGQGTKVEIKR",
    "REPORTED MEASUREMENT": "> 50 µg/mL"
  }
]

Would you kindly look at the next entry?
For this binder ( mAb 82 (antibody, V domains shown, also called IgG 82; Antibody 82) VH: QVQLVQSGAEVKKPGASVKVSCKASGGSFSTSAFYWVRQAPGQGLEWMGWINPYTGGTNYAQKFQGRVTMTRDTSTSTVYMELSSLRSEDTAVYYCARSRALYGSGSYFDYWGQGTLVTVSS VL: DIQMTQSPSSLSASVGDRVTITCRASQVISNYLAWYQQKPGKAPKLLIYDASNLETGVPSRFSGSGSGTDFTLTISSLQPEDFATYYCQQSFSPPPTFGQGTRLEIKR ), measured IC50 SARS-CoV2 PsV (IgG) is 1.6 µg/mL
